Listed here: items and their measured total protein half-life in vivo.
- test.description: total protein half-life in vivo (active degradation + dilution); higher = more stable protein
- details: wild type E. coli NCM3722; growth: C-lim chemostat; doubling time 12 h
Quick reminder: number only, in h, skip the unit.

[
  {
    "residue.sequence": "MDNDKIDQHSDEIEVESEEKERGKKIEIDEDRLPSRAMAIHEHIRQDGEKELERDAMALLWSAIAAGLSMGASLLAKGIFQVELEGVPGSFLLENLGYTFGFIIVIMARQQLFTENTVTAVLPVMQKPTMSNVGLLIRLWGVVLLGNILGTGIAAWAFEYMPIFNEETRDAFVKIGMDVMKNTPSEMFANAIISGWLIATMVWMFPAAGAAKIVVIILMTWLIALGDTTHIVVGSVEILYLVFNGTLHWSDFIWPFALPTLAGNICGGTFIFALMSHAQIRNDMSNKRKAEARQKAERAENIKKNYKNPA",
    "total protein half-life in vivo, h": 11.5
  },
  {
    "residue.sequence": "MTDLIQRPRRLRKSPALRAMFEETTLSLNDLVLPIFVEEEIDDYKAVEAMPGVMRIPEKHLAREIERIANAGIRSVMTFGISHHTDETGSDAWREDGLVARMSRICKQTVPEMIVMSDTCFCEYTSHGHCGVLCEHGVDNDATLENLGKQAVVAAAAGADFIAPSAAMDGQVQAIRQALDAAGFKDTAIMSYSTKFASSFYGPFREAAGSALKGDRKSYQMNPMNRREAIRESLLDEAQGADCLMVKPAGAYLDIVRELRERTELPIGAYQVSGEYAMIKFAALAGAIDEEKVVLESLGSIKRAGADLIFSYFALDLAEKKILR [P0ACB2]",
    "total protein half-life in vivo, h": 9.8
  },
  {
    "residue.sequence": "MKKFAAVIAVMALCSAPVMAAEQGGFSGPSATQSQAGGFQGPNGSVTTVESAKSLRDDTWVTLRGNIVERISDDLYVFKDASGTINVDIDHKRWNGVTVTPKDTVEIQGEVDKDWNSVEIDVKQIRKVNP [P0ADU5]",
    "total protein half-life in vivo, h": 6.74
  },
  {
    "residue.sequence": "MTMYATLEEAIDAAREEFLADNPGIDAEDANVQQFNAQKYVLQDGDIMWQVEFFADEGEEGECLPMLSGEAAQSVFDGDYDEIEIRQEWQEENTLHEWDEGEFQLEPPLDTEEGRAAADEWDER",
    "total protein half-life in vivo, h": 6.75
  },
  {
    "residue.sequence": "MTKTLLDGPGRVLESVYPRFLVDLAQGDDARLPQAHQQQFRERLMQELLSRVQLQTWTNGGMLNAPLSLRLTLVEKLASMLDPGHLALTQIAQHLALLQKMDHRQHSAFPELPQQIAALYEWFSARCRWKEKALTQRGLLVQAGDQSEQIFTRWRAGAYNAWSLPGRCFIVLEELRWGAFGDACRLGSPQAVALLLGDLLEKATQHLAESINAAPTTRHYYHQWFASSTVPTGGEHADFLSWLGKWTTADKQPVCWSVTQRWQTVALGMPRLCSAQRLAGAMLEEIFSVNLA",
    "total protein half-life in vivo, h": 7.8
  }
]

[ask] Dear colleague, I am looking for the recorded total protein half-life in vivo of the following sequence: MSKSLQKPTILNVETVARSRLFTVESVDLEFSNGVRRVYERMRPTNREAVMIVPIVDDHLILIREYAVGTESYELGFSKGLIDPGESVYEAANRELKEEVGFGANDLTFLKKLSMAPSYFSSKMNIVVAQDLYPESLEGDEPEPLPQVRWPLAHMMDLLEDPDFNEARNVSALFLVREWLKGQGRV
[reply] 9.26

[ask] Reported total protein half-life in vivo for MDIVFIEQLSVITTIGVYDWEQTIEQKLVFDIEMAWDNRKAAKSDDVADCLSYADIAETVVSHVEGARFALVERVAEEVAELLLARFNSPWVRIKLSKPGAVARAANVGVIIERGNNLKENN [P0AC16] : what is it?
[reply] 11.8

[ask] // returns reported total protein half-life in vivo for input MFQLSVQDIHPGEKAGDKEEAIRQVAAALVQAGNVAEGYVNGMLAREQQTSTFLGNGIAIPHGTTDTRDQVLKTGVQVFQFPEGVTWGDGQVAYVAIGIAASSDEHLGLLRQLTHVLSDDSVAEQLKSATTAEELRALLMGEKQSEQLKLDNEMLTLDIVASDLLTLQALNAARLKEAGAVDATFVTKAINEQPLNLGQGIWLSDSAEGNLRSAIAVSRAANAFDVDGETAAMLVSVAMNDDQPIAVLKRLADLLLDNKADRLLKADAATLLALLTSDDAPTDDVLSAEFVVRNEHGLHARPGTMLVNTIKQFNSDITVTNLDGTGKPANGRSLMKVVALGVKKGHRLRFTAQGADAEQALKAIGDAIAAGLGEGA
[reply] 12.3

[ask] Consider the sequence shown here: MSESLSWMQTGDTLALSGELDQDVLLPLWEMREEAVKGITCIDLSRVSRVDTGGLALLLHLIDLAKKQGNNVTLQGVNDKVYTLAKLYNLPADVLPR What is its recorded total protein half-life in vivo?
[reply] 10.9

[ask] Consider the sequence shown here: MWIGIISLFPEMFRAITDYGVTGRAVKNGLLSIQSWSPRDFTHDRHRTVDDRPYGGGPGMLMMVQPLRDAIHAAKAAAGEGAKVIYLSPQGRKLDQAGVSELATNQKLILVCGRYEGIDERVIQTEIDEEWSIGDYVLSGGELPAMTLIDSVSRFIPGVLGHEASATEDSFAEGLLDCPHYTRPEVLEGMEVPPVLLSGNHAEIRRWRLKQSLGRTWLRRPELLENLALTEEQARLLAEFKTEHAQQQHKHDGMA [P0A873] What is its recorded total protein half-life in vivo?
[reply] 8.46

====

- test.description: total protein half-life in vivo (active degradation + dilution); higher = more stable protein
- details: E. coli NCM3722 delta-hslV; growth: N-lim chemostat; doubling time 6 h
total protein half-life in vivo: recorded values
Give the value, in units of h, as a plain number.

[
  {
    "residue.sequence": "MVKLPPLSLYIHIPWCVQKCPYCDFNSHALKGEVPHDDYVQHLLNDLDNDVAYAQGREVKTIFIGGGTPSLLSGPAMQTLLDGVRARLPLAADAEITMEANPGTVEADRFVDYQRAGVNRISIGVQSFSEEKLKRLGRIHGPQEAKRAAKLASGLGLRSFNLDLMHGLPDQSLEEALGDLRQAIELNPPHLSWYQLTIEPNTLFGSRPPVLPDDDALWDIFEQGHQLLTAAGYQQYETSAYAKPGYQCQHNLNYWRFGDYIGIGCGAHGKVTFPDGRILRTTKTRHPRGFMQGRYLESQRDVEATDKPFEFFMNRFRLLEAAPRVEFIAYTGLCEDVIRPQLDEAIAQGYLTECADYWQITEHGKLFLNSLLELFLAE",
    "reported.value": 4.32
  }
]

[ask] Any idea what total protein half-life in vivo was measured for MPLHNLTRFPRLEFIGAPTPLEYLPRFSDYLGREIFIKRDDVTPMAMGGNKLRKLEFLAADALREGADTLITAGAIQSNHVRQTAAVAAKLGLHCVALLENPIGTTAENYLTNGNRLLLDLFNTQIEMCDALTDPNAQLEELATRVEAQGFRPYVIPVGGSNALGALGYVESALEIAQQCEGAVNISSVVVASGSAGTHAGLAVGLEHLMPESELIGVTVSRSVADQLPKVVNLQQAIAKELELTASAEILLWDDYFAPGYGVPNDEGMEAVKLLARLEGILLDPVYTGKAMAGLIDGISQKRFKDEGPILFIHTGGAPALFAYHPHV ?
[reply] 5.5

====

- test.description: total protein half-life in vivo (active degradation + dilution); higher = more stable protein
- details: E. coli NCM3722 delta-clpP delta-lon delta-hslV; growth: N-lim chemostat; doubling time 6 h
measured.property: total protein half-life in vivo (h)
Give just the number in h; leave the unit off.

[
  {
    "residue.sequence": "MPVRASIEPLTWENAFFGVNSAIVRITSEAPLLTPDALAPWSRVQAKIAASNTGELDALQQLGFSLVEGEVDLALPVNNASDSGAVVAQETDIPALRQLASAAFAQSRFRAPWYAPDASSRFYAQWIENAVRGTFDHQCLILRAASGDIRGYVSLRELNATDARIGLLAGRGAGAELMQTALNWAYARGKTTLRVATQMGNTAALKRYIQSGANVESTAYWLYR",
    "total protein half-life in vivo, h": 5.12
  },
  {
    "residue.sequence": "MIALIQRVTRASVTVEGEVTGEIGAGLLVLLGVEKDDDEQKANRLCERVLGYRIFSDAEGKMNLNVQQAGGSVLVVSQFTLAADTERGMRPSFSKGASPDRAEALYDYFVERCRQQEMNTQTGRFAADMQVSLVNDGPVTFWLQV [P0A6M4]",
    "total protein half-life in vivo, h": 4.67
  },
  {
    "residue.sequence": "MLIFEGKEIETDTEGYLKESSQWSEPLAVVIAENEGISLSPEHWEVVRFVRDFYLEFNTSPAIRMLVKAMANKFGEEKGNSRYLYRLFPKGPAKQATKIAGLPKPVKCI [P0AB18]",
    "total protein half-life in vivo, h": 4.6
  },
  {
    "residue.sequence": "MNTISSLETTDLPAAYHIEQRAHAFPWSEKTFASNQGERYLNFQLTQNGKMAAFAITQVVLDEATLFNIAVDPDYQRQGLGRALLEHLIDELEKRGVATLWLEVRASNAAAIALYESLGFNEATIRRNYYPTTDGREDAIIMALPISM [P0A944]",
    "total protein half-life in vivo, h": 5.64
  },
  {
    "residue.sequence": "MEQRHITGKSHWYHETQSSTTEYDVLPLVPEAAKVSDPFLLDVILEKETLAPFLSWLDPARVLAVDLFPDQLTVTRSQTFTAYERLSTALTVAQVCGVQRLCNYYSARLTPLPGPDSTRESNHRLAQITQYARQLASSPSIIDNRSRQHLNDVGLTAWDCVIISQIIGFIGFQARTIATFQAYLGHPVRWLPGLEIQNYADASLFADESLRWRSSYEVEKLPEEHTKSSTAELCQLAEILSLHPISLSLLEKLLNSTRGNTQPDNQLAALLCARINGSPACFATCMDSSNEYKKISTLMRKGENEINQWADRHSVERATVQAIQWLTRAPDRFSAAQFSPLLEHEKSSTQIINLLVWSGLCGWINRLKIALGETY",
    "total protein half-life in vivo, h": 6.43
  }
]

[ask] Looking for the measured total protein half-life in vivo of MSKAGASLATCYGPVSADVIAKAENIRLLILDVDGVLSDGLIYMGNNGEELKAFNVRDGYGIRCALTSDIEVAIITGRKAKLVEDRCATLGITHLYQGQSNKLIAFSDLLEKLAIAPENVAYVGDDLIDWPVMEKVGLSVAVADAHPLLIPRADYVTRIAGGRGAVREVCDLLLLAQGKLDEAKGQSI [P0ABZ4] , can you help?
[reply] 6.03

[ask] Give the measured total protein half-life in vivo of MIEWQDLHHSELSVSQLYALLQLRCAVFVVEQNCPYQDIDGDDLTGDNRHILGWKNDELVAYARILKSDDDLEPVVIGRVIVSEALRGEKVGQQLMSKTLETCTHHWPDKPVYLGAQAHLQNFYQSFGFIPVTEVYEEDGIPHIGMAREVIQA [P0AEH3] .
[reply] 4.51
